biological target: Voltage-gated potassium channel subunit beta-2 (Rattus norvegicus) (UniProt P62483); test: inhibitors of rat Kvbeta2 reductase activity – biochemical, NADPH fluorescence, primary screen (AID 622); details: recombinant KvBeta, 4-cyanobenzaldehyde reduction, at 10 µM;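 note: slope of raw intensity against log time taken from 70 to 1610 s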
Sequence (P62483 whole entry, looked up): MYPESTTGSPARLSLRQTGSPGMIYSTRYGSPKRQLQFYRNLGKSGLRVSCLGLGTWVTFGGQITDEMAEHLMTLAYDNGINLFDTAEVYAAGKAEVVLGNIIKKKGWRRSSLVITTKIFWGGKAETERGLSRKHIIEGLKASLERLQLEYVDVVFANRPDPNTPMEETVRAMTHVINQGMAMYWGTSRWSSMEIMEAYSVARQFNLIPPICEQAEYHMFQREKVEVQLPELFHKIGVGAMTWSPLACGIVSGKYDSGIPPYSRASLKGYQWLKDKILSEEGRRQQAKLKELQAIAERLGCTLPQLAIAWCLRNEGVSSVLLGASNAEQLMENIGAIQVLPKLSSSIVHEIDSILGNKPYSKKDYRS
Activity calls are given as the source filed them.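 Rule for the calls: active = fluorescence slope higher than the sample average by over 3 SD (cut at about -0.22 in these data, passing the limit was not always enough); inactive = the rest.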
Respond with a class label; see active, inactive

Before answering, review these 5 worked examples.
CC(C)(C)NC(=O)NC(=O)COc1ccccc1C#N: inactive
NS(=O)(=O)c1ccc(CCNC(=O)c2cccnc2)cc1: inactive
Cc1ccc(OCCC(=O)OCC(=O)C(C)(C)C)cc1: inactive
CCOC(=O)N1CCN(C(=O)c2ccc3c(=O)n(Cc4ccc(OC)cc4)c(=S)[nH]c3c2)CC1: inactive
N#Cc1cc2c(nc1SCC(=O)Nc1sc3c(c1C#N)CCC3)CCCCC2: inactive

# input Test call, this compound: Cc1cc(C)n2cc(CSc3nnnn3C)nc2n1
# output inactive

# input Okay, and CCN(CC(=O)NC1CCS(=O)(=O)C1)C(=O)C(c1ccccc1)c1ccccc1 (stereo not drawn) ?
# output inactive
